Test system: PPARg:RXRa (NR concentration 180 nM, RXRa partner concentration 90 nM)
Assay: PBM binding z-score (relative to random genomic background probes); higher = stronger binding; sequences stand for … in GC…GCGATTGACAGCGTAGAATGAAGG
measurement_kind: PBM binding z-score

{"columns": ["primary_sequence", "measurement_kind", "measurement"],
 "data": [
  ["CCGACTGGTGCAAGGTTACCATAACGCACAGCCA", "PBM binding z-score", 0.89],
  ["CCGACTGGGGCAAGGGTACCATAACGCACAGCCA", "PBM binding z-score", 4.24],
  ["AGAGTGAGGTTATTAAGATCAGGGAATTGCGGTC", "PBM binding z-score", 0.616],
  ["TCTATTAGTTGAAGAGCAACCGACGAGTCCGTTT", "PBM binding z-score", -0.0464],
  ["ACTATTAGTTGAGACGAGGGGAACCGATAGGTTG", "PBM binding z-score", 0.569],
  ["ACTATTAGTTGAGGCGAGGGCAACCGATAGGTTG", "PBM binding z-score", 0.389],
  ["CGTCCAAGGTCAATGATAGGTCAGTGAAAGCATT", "PBM binding z-score", 3.87],
  ["TAGCCTAGGTCAAATCGGGCCAGTATACGCTATA", "PBM binding z-score", 2.33],
  ["CAAACTAGGTCAAGGACAGTGAATCTCCGCACGC", "PBM binding z-score", 7.68],
  ["ACTCGGAGTACAAAGGTCAGAGCTACGCCAGTGA", "PBM binding z-score", 8.46],
  ["ACTAGTTGGTCAGCGGAGGTCACACACAATTCGG", "PBM binding z-score", 1.91],
  ["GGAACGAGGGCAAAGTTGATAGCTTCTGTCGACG", "PBM binding z-score", 6.78],
  ["TCGAGTAGGTTACCAATGGGGCATTTAGCTTTCT", "PBM binding z-score", 0.144],
  ["TCATATAGGTAAACAGGTGAAAGACCGTAAGTTA", "PBM binding z-score", 3.45],
  ["TCGAGTAGGTTAGTCGGGGCATTGAGCCAACATA", "PBM binding z-score", -0.175],
  ["GCATATCGGTAATACAAGGTGAAAGTCCGATTGT", "PBM binding z-score", 0.415],
  ["CCAGACAGGTGAGACGGTAACTCAGCCTCGATTA", "PBM binding z-score", 0.367],
  ["CCTACTGGGCCAAAAAGGTCATCGATGCCGATAA", "PBM binding z-score", 4.32],
  ["GCTAGCAGGCCATTTGGGTAACTCAATGACGGGC", "PBM binding z-score", 0.519],
  ["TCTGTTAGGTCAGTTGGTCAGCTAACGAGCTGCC", "PBM binding z-score", 0.27],
  ["CCGAGTGGGGCAAGGTTACCATAACGCACAGCCA", "PBM binding z-score", 2.73],
  ["CAAACTAGGTCAAGGTCAAAGGCGGTTTGTGCCA", "PBM binding z-score", 9.82],
  ["CTCGAAAGGACGGTTGAGGTGAGTATACGGATAA", "PBM binding z-score", 0.232],
  ["CAAACTAGGTCACGAAAGGTTAAAGTCGAATGAC", "PBM binding z-score", 9.67],
  ["GGAACGAGGGCATTCGATTTGATAGCATGGCGAT", "PBM binding z-score", 1.13],
  ["TCTATTAGTTGAAGGGCAACCGTCGAGTCCGTTT", "PBM binding z-score", -0.355]
]}
